Ref: patent US8440708B2

# Assay Target: human P2X2/3 receptor (Homo sapiens, UniProt P56373+Q9UBL9)
# Construct: expressed in transfected cells; host or cells: CHO-K1
# Sequence (Q9UBL9 whole entry): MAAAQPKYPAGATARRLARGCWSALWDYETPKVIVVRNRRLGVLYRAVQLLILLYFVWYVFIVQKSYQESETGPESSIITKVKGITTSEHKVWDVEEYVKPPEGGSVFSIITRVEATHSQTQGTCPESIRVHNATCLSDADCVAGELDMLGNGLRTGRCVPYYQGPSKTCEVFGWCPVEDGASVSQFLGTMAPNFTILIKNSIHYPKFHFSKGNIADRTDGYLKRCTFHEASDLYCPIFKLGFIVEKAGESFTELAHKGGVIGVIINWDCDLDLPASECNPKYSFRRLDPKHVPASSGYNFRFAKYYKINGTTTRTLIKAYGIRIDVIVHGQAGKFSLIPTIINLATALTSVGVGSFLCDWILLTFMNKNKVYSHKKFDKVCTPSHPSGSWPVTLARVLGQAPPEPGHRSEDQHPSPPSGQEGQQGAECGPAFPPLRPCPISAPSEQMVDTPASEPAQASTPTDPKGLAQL
# Sequence (P56373 whole entry): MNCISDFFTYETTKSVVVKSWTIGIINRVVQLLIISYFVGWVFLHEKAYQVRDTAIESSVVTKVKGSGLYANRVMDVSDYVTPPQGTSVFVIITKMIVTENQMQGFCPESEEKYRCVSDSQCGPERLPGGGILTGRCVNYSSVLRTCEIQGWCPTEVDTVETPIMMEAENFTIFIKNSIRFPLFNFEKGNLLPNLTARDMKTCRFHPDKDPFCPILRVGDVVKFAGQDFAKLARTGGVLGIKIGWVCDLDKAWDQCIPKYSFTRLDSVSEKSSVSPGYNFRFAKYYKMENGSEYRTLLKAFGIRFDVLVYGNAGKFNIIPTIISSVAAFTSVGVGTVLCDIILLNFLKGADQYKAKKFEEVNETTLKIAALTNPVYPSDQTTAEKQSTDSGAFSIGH
# Experiment Summary: P2X3/P2X2/3 FLIPR (Fluorometric Imaging Plate Reader) Assay, P2X2/3
# Assay type: cell-based
# Protocol Conditions: CHO-K1 cells transfected with human P2X2/3; agonist α,β-meATP 5 μM; Table 1; read-out: P2X2/3 pKi (converted)
Endpoint Name: Ki (nM)

1. Cc1ccc(-c2cc(C(=O)NC(C)c3cnccn3)cc(-n3ncnc3C(C)(F)F)c2)nc1 (stereo not shown) ... 42.7

A. Cc1ccc(-c2cc(C(=O)N[C@@H](C)CO)cc(-n3ncnc3C(C)N(C)C)c2)nc1 (stereo partly shown)
B. Cc1ccc(-c2cc(C(=O)N[C@@H](C)CO)cc(-n3ncnc3C(F)(F)F)c2)nc1
# input Which entry shows the lesser value of Ki here, A or B ? Mark your answer with the label of the selected entry.
# output A
(A: 2750 nM, B: 4680 nM)
